Test System: Bombesin receptor subtype‐3 (BRS‐3) (Rattus norvegicus)
Sequence (Q8K418 whole entry): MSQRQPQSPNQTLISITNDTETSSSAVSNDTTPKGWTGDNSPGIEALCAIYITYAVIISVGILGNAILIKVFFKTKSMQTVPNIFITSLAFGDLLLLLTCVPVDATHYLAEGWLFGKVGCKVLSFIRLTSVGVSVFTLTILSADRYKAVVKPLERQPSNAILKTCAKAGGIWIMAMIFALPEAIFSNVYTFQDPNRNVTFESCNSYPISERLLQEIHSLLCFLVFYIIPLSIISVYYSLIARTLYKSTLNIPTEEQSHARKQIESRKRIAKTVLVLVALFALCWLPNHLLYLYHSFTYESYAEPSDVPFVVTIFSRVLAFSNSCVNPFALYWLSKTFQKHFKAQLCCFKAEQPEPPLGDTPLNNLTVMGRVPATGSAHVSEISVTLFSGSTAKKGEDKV
Assay Overview: agonist-induced Ca2+ mobilization, aequorin bioluminescence assay in CHO-K1 cells overexpressing BRS-3
pEC50: −log10 of the molar value.
Measurement Type: pEC50

[
  {
    "Compound": "COc1ccc2c(c1)C(=O)N(Cc1ccccc1)C(C(=O)NC(C)(C)C)c1ccccc1-2 (racemic) [compound-A]",
    "pEC50": 7.00
  },
  {
    "Compound": "COc1ccc2c(c1)C(=O)N(Cc1ccccc1)C(C(=O)NC(C)(C)C)c1ccccc1-2 (racemic) [compound-C, compound‐C]",
    "pEC50": 6.89
  }
]
